Experiment: Toxicity in Poecilia reticulata assessed as mortality at 13.6 ug/ml after 24 hrs
Type: organism-based
Settings: in vivo, read-out: Activity
readout_name: mortality at 24 h, 13.6 ug/ml (%)
Report the figure in % without appending any unit label.

Please indicate mortality at 24 h, 13.6 ug/ml recorded for H-RQIRRWWQWRR-NH2 0

----------
Assay: Toxicity in Poecilia reticulata assessed as mortality at 13.6 ug/ml after 48 hrs
Type: organism-based
Details: in vivo, read-out: Activity
readout_name: mortality at 48 h, 13.6 ug/ml

Tell us which mortality at 48 h, 13.6 ug/ml value is on record for H-RQIRRWWQWRR-NH2 0%
